Target: T1, feline OSMR on feline Fcwf-4 cells (feline, UniProt A0ABI8A843 28-960)
T1 sequence: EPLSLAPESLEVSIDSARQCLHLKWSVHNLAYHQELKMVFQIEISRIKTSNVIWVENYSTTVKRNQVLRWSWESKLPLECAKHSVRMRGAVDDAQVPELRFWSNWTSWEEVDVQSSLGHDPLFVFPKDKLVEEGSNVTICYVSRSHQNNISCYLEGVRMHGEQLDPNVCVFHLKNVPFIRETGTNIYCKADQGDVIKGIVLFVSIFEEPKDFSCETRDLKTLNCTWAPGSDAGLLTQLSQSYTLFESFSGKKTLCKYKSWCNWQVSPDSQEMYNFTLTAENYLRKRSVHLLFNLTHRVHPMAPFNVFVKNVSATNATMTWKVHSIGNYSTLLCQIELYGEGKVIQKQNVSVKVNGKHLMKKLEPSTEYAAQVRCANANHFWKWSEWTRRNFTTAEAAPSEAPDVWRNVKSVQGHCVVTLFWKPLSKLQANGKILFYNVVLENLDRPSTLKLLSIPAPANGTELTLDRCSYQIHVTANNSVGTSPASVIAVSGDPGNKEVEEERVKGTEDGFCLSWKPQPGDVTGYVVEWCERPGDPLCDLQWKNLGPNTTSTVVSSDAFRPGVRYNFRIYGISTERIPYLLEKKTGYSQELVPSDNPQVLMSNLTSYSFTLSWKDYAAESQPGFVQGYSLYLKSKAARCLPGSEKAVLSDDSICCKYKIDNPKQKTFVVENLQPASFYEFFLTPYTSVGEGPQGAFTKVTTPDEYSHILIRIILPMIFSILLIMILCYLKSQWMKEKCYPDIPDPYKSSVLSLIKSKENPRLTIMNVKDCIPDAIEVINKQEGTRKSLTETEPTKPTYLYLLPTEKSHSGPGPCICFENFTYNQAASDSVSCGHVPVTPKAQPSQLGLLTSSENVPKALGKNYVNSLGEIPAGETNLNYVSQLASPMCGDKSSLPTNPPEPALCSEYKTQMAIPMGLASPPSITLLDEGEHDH
Assay: cell-based or functional assay
What % inh of feline IL-31 pSTAT3 signaling, feline Fcwf-4 cells was measured for each of the following?
# output: bare number, implied unit % inh

The binder listed as Mu_14C04 (antibody, V domains shown, Mouse hybridoma IgG) VH: EVQLQESGAELVKPGASVKISCKASGYAFSNYWMNWMKQRPGKGLEWIGQIYPGHVNTNYNGNFKDKATLTADKSSSTAYMQLSSLTSEDSAVYFCARSADNSGFVLFAYWGQGTLVTVS VL: DIVLTQSPASLAVSLGQRATISCRASKSVSTSGYSYLHWYQQKPGQPPKLLIFLASNLESGVPARFSGSGSGTDFTLNIHPVEEEDAATYYCQHSRELPLTFGAGTKLELK shows % inh of feline IL-31 pSTAT3 signaling, feline Fcwf-4 cells equal to 0

The binder listed as Mu_09E09 (antibody, V domains shown, Mouse hybridoma IgG) VH: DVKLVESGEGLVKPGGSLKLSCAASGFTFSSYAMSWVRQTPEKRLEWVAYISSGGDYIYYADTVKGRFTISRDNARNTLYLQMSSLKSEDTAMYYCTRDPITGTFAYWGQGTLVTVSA VL: DLQMTQTTSSLSASLGDRVTISCRASQDINNYLNWYQQKPDGTVKLLIYYTSTLHSGVPSRFSGSGSGTDYSLTISNLEQEDIATYFCQQGNTLPWTFGGGTKLEIK shows % inh of feline IL-31 pSTAT3 signaling, feline Fcwf-4 cells equal to 63

The binder listed as Mu_10F07 (antibody, V domains shown, Mouse hybridoma IgG) VH: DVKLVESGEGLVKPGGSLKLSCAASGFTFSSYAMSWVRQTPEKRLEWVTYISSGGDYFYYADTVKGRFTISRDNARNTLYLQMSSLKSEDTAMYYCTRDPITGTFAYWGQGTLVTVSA VL: DIQMTQTTSSLSASLGDRVTISCRASQDITNYLNWYQQKPDGTVKLLIYYTSTLHSGVPSRFSGSGSGTDFSLTISNLEQEDIATYFCQQGHMLPWTFGGGTKLEIK shows % inh of feline IL-31 pSTAT3 signaling, feline Fcwf-4 cells equal to 91

The binder listed as Mu_19F07 (antibody, V domains shown, Mouse hybridoma IgG) VH: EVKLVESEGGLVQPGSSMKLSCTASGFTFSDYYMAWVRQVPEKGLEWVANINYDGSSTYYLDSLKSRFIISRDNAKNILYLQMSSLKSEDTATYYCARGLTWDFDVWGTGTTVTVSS VL: DIVMTQSHKFMSPSVGDRVSITCKASQDVDTAVAWYQQKPGQSPKLLIYLASTRHTGVPDRFTGSGSGTDFTLTISNVQSEDLADYFCQQYSRFPLTFGAGTKLELK shows % inh of feline IL-31 pSTAT3 signaling, feline Fcwf-4 cells equal to 90
